- System: Fibroblast
- experiment description: Multiplex assay against human fibroblast
- Assay type: toxicity, cell-based
- conditions: 12 h, 1 µM, compound concentration 1 uM, replicate 2
experimental endpoint: Population Fragmented Nuclei (%)

See these solved cases before continuing.
mol=NC(=O)Nc1cc(-c2cccc(F)c2)sc1C(=O)N[C@H]1CCCNC1 tested_target=Fibroblast observed_value=42%
mol=COc1ncc(-c2ccc3nccc(-c4ccnnc4)c3c2)cc1NS(=O)(=O)c1ccc(F)cc1F tested_target=Fibroblast observed_value=46%

Memo: OC1(c2ccc(Cl)cc2)CCN(Cc2c[nH]c3ccccc23)CC1 , reported Population Fragmented Nuclei (%): 13%

Memo: Cc1cc(C)cc(-c2cnc3cc(Cl)c(-c4cccc(O)c4)cc3c2OCCCN)c1 , reported Population Fragmented Nuclei (%): 11%

Memo: CNc1nc(NCc2ccc(NS(C)(=O)=O)cc2Cl)cc(-c2ccccn2)n1 , reported Population Fragmented Nuclei (%): 11%

---

Catalogue of molecules with associated Population Apoptotic (%)
- System: U2OS
- experiment description: Multiplex assay against U2OS
- Assay type: toxicity, cell-based
- conditions: human, 48 h, 1 µM, compound concentration 1 uM, replicate 2

Memo: Cc1c(-c2ccc(O)cc2)n(Cc2ccc(OCCN3CCCCCC3)cc2)c2ccc(O)cc12 , reported Population Apoptotic (%): 36%

Memo: C=CC(=O)Nc1cccc(C(=O)Nc2ccc(Nc3cc(-c4[nH]c(SC)nc4C)ccn3)cc2)c1 , reported Population Apoptotic (%): 18%

---

- System: Fibroblast
- experiment description: Multiplex assay against human fibroblast
- Type: toxicity, cell-based
- conditions: 24 h, 10 µM, compound concentration 10 uM, replicate 1
experimental endpoint: Total Cell Count
Simply state the number, no unit and no words.

compound=Cc1c(-c2ccc(O)cc2)n(Cc2ccc(OCCN3CCCCCC3)cc2)c2ccc(O)cc12 tested_target=Fibroblast observed_value=134
compound=Cc1cc(C)cc(-c2cnc3cc(Cl)c(-c4cccc(O)c4)cc3c2OCCCN)c1 tested_target=Fibroblast observed_value=149
compound=Cc1nc(Nc2n[nH]c3c2CN(C(=O)N[C@H](CN(C)C)c2ccccc2)C3(C)C)c2sccc2n1 tested_target=Fibroblast observed_value=254
compound=C=CC(=O)Nc1ccc2ncnc(Nc3ccc(OCc4cccc(F)c4)c(Cl)c3)c2c1.Cc1ccc(S(=O)(=O)O)cc1 tested_target=Fibroblast observed_value=118

Memo: C=CC(=O)Nc1cccc(C(=O)Nc2ccc(Nc3cc(-c4[nH]c(SC)nc4C)ccn3)cc2)c1 , reported Total Cell Count: 113

Memo: Cc1[nH]c(/C=C2\C(=O)Nc3ccc(S(=O)(=O)N(C)c4cccc(Cl)c4)cc32)c(C)c1C(=O)N1CCN(C)CC1 , reported Total Cell Count: 79

Memo: CN(C)C(=O)N[C@H]1CC[C@H](CCN2CCN(c3cccc(Cl)c3Cl)CC2)CC1.Cl [CARIPRAZINE HYDROCHLORIDE] , reported Total Cell Count: 190

Memo: Cn1cc(-c2[nH]c3cc(NC(=O)[C@H](N)C4CCCCC4)cc4c3c2C=NNC4=O)cn1 , reported Total Cell Count: 256

Memo: CN(C)C(=O)/C(C#N)=C/c1ccc(-c2nc3cnc4[nH]ccc4c3n2C2CCCCC2)o1 , reported Total Cell Count: 606

Memo: c1cn2cc(-c3ccc4cn[nH]c4c3)nc(Nc3ccc(N4CCOCC4)cc3)c2n1 , reported Total Cell Count: 1126

Memo: COc1cc2nccc(Oc3ccc(NC(=O)Nc4cc(C)on4)c(Cl)c3)c2cc1OC.O , reported Total Cell Count: 158

Memo: COc1cc(-n2cnc3cc(-c4ccc(Cl)cc4)sc3c2=O)ccc1OCCN1CCCC1 , reported Total Cell Count: 125
